Test: physchem
*1 amine or outer side, *2 acyl side, *3 side chain or, on linkers, in order; H or OH if unused. Where a SMILES comes first, the peptide text is derived from it. Bridges are numbered along the chain shown (N, C = ends). [ ]: non-standard residue; d: D form. ξ: configuration not given here. ξTrp(2-yl) = O=C(C(Cc1c([*:3])[nH]c2ccccc12)N[*:1])[*:2]; X1 = CC(O)(CO)CC(N[*:1])C(=O)[*:2]; Hyp = O=C(O)[CH]1C[CH](O)CN1
Measured parameter: logP
Give the value as a plain number.

Could you please provide reported logP for CC1NC(=O)C(CC(C)(O)CO)NC(=O)C2Cc3c([nH]c4ccccc34)SCC(NC(=O)C(C(C)O)NC1=O)C(=O)N1CC(O)CC1C(=O)NC(C)C(=O)N2 (stereo not shown) [phalloidin] (cyclo([X1]ATC[Hyp]A[ξTrp(2-yl)]); thioether 4-7; configuration not given here) ? Thanks!
-1.5
